Recorded values, source patent US8471005B2.

The following compounds are shown together with reported pIC50 values.
test_target: ALK (Homo sapiens, UniProt Q9UM73)
Construct: host or cells: baculovirus expression system
Sequence (Q9UM73 19-1620): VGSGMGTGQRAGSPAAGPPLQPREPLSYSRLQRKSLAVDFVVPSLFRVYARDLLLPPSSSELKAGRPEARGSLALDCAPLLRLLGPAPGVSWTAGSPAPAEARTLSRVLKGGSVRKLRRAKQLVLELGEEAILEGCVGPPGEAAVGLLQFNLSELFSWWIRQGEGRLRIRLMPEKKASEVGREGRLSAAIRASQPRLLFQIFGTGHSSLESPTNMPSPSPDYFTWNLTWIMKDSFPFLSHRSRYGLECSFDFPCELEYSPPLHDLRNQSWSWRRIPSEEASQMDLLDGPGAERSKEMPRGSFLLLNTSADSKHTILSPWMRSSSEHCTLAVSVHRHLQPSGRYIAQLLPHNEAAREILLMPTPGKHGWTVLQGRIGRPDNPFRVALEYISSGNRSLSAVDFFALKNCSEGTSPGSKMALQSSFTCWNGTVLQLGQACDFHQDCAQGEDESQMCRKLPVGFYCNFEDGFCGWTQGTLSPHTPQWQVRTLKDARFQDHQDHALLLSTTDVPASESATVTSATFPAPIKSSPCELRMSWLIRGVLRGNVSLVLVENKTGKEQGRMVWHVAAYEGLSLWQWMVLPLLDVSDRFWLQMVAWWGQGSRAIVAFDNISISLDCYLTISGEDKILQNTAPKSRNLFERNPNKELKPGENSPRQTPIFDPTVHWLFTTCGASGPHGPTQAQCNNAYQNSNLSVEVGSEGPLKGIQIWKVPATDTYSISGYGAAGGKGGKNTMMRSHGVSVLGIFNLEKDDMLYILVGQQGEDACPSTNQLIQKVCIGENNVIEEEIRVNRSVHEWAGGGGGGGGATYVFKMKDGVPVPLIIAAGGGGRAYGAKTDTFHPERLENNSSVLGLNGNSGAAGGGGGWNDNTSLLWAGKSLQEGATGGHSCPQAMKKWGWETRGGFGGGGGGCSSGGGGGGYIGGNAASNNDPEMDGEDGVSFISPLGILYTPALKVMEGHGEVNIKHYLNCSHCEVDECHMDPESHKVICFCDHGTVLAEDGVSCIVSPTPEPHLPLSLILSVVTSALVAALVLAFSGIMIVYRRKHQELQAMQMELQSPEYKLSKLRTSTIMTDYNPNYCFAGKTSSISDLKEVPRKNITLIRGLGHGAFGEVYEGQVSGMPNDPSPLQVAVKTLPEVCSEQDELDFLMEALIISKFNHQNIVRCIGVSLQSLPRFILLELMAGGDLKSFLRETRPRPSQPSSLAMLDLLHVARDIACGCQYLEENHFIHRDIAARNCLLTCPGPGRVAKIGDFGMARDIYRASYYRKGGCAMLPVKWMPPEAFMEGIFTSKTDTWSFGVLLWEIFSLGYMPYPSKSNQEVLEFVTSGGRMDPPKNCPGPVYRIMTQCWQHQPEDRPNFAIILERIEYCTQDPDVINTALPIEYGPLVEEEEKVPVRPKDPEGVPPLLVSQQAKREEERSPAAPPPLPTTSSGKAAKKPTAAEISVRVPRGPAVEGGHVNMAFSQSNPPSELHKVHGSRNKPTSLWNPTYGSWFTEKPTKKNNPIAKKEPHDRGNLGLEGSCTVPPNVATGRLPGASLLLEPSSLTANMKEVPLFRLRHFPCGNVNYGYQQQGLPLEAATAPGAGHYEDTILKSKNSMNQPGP
assay_summary: ALK Kinase Assay (ELISA/TRF, PLC-γ substrate)
Assay type: biochemical
cond: ALK Kinase Inhibition; read-out: ALK Potency
pIC50: −log10 of the molar value.

Examples with answers:
### Prompt For the compound shown here, CNC(=O)c1ccc(-c2ccc3cnc(Nc4ccc(N5CCOCC5)cc4)nn23)cc1 [Example 55] , give the reported pIC50.
### Response 5.00 to 6.00

### Prompt For the compound shown here, COc1ccc(Nc2ncc3ccc(-c4cccc(NS(C)(=O)=O)c4)n3n2)cc1N1CCOCC1 [Example 395] , give the reported pIC50.
### Response 6.00 to 7.00

### Prompt For the compound shown here, CC1(C)C(=O)Nc2ccc(Nc3ncc4ccc(-c5ccccc5N5CCCS5(=O)=O)n4n3)cc21 [Example 1556] , give the reported pIC50.
### Response > 7.00

### Prompt For the compound shown here, COc1ccc(-c2ccc3cnc(Nc4ccc(N5CCN(C)CC5)cc4OC)nn23)cn1 [Example 73] , give the reported pIC50.
### Response > 7.00

---
### Prompt For the compound shown here, COc1ccc(-c2ccc3cnc(Nc4cccc(C5CNCCN5)c4)nn23)cn1 (centres unmarked) [Example 1566] , give the reported pIC50.
### Response 5.00 to 6.00

### Prompt For the compound shown here, COc1cccc(-c2ccc3cnc(Nc4ccc(N5CCN(C)CC5)cc4)nn23)c1 [Example 423] , give the reported pIC50.
### Response 6.00 to 7.00

### Prompt For the compound shown here, CN1CCN(C2CCN(c3ccc(Nc4ncc5cc6ccccc6n5n4)cc3)CC2)CC1 [Example 264] , give the reported pIC50.
### Response 5.00 to 6.00

### Prompt For the compound shown here, Cc1ccc(S(=O)(=O)N(C)C)cc1-c1ccc2cnc(Nc3ccc(N4CCN(C)CC4)cc3)nn12 [Example 74] , give the reported pIC50.
### Response 6.00 to 7.00

### Prompt For the compound shown here, C[C@H](O)CN1CCC(c2ccc(Nc3ncc4ccc(-c5ccc(S(C)(=O)=O)cc5)n4n3)cc2)CC1 [Example 1432] , give the reported pIC50.
### Response > 7.00

### Prompt For the compound shown here, COc1cc(Nc2ncc3ccc(-c4cccc(S(C)(=O)=O)c4)n3n2)cc(OC)c1OC [Example 185] , give the reported pIC50.
### Response 6.00 to 7.00

### Prompt For the compound shown here, COc1cccc(Nc2ncc3ccc(-c4cccc(Cl)c4)n3n2)c1 [Example 146] , give the reported pIC50.
### Response < 5.00

### Prompt For the compound shown here, COc1ccccc1-c1cc(Br)c2cnc(Nc3ccc(N4CCN(C)CC4)cc3)nn12 [Example 101] , give the reported pIC50.
### Response > 7.00

### Prompt For the compound shown here, COc1ccc(OC)c(-c2ccc3cnc(Nc4ccc(N5CCOCC5)cc4)nn23)c1 [Example 424] , give the reported pIC50.
### Response 6.00 to 7.00
